Listed here are compounds together with their documented inhibition.
Experiment: growth suppression of yeast trafficking mutant, preliminary HTS, modulators of trafficking downstream of Golgi apparatus project, 1536-format plate, OD 615 nm (AID 637)
Conditions: yeast transport mutant growth, absorbance 615 nm, 18 h; hits give high values

{"compound": "Cc1ccccc1OCCCN1C(=O)C(=O)c2cccc(C)c21", "inhibition (%)": -1.33}
{"compound": "CCOC(=O)C1C(=O)NC(SCC(=O)Nc2nccs2)=C(C#N)C1c1ccccc1OCC (stereo unspecified)", "inhibition (%)": 7.78}
{"compound": "COc1cc(NC(=O)c2cccs2)cc(OC)c1", "inhibition (%)": -8.18}
{"compound": "CCc1ccccc1OCCCCN1CCCC1", "inhibition (%)": -1.97}
{"compound": "COc1ccc(S(=O)(=O)NC(CC(=O)NCc2ccco2)c2ccco2)cc1 (stereo unspecified)", "inhibition (%)": 4.29}
{"compound": "c1ccc(-c2ccc(C(c3ccccc3)n3ccnc3)cc2)cc1 (stereo unspecified)", "inhibition (%)": 100}
{"compound": "COc1ccccc1C1C(C#N)=C(N)Oc2cc(C)n(Cc3ccccn3)c(=O)c21 (stereo unspecified)", "inhibition (%)": -6.94}
{"compound": "O=C(c1ccco1)N1CCN(CC2CC3C=CC2C3)CC1 (stereo unspecified)", "inhibition (%)": -2.13}
{"compound": "Cc1cc(C)nc(NC2=NCC(=O)N2c2ccc(Cl)cc2)n1", "inhibition (%)": 0.55}
{"compound": "Cc1cc(C)n(C(=O)C23CC4CC(CC(C4)C2)C3)n1", "inhibition (%)": -5.32}
{"compound": "Cc1ccc(Cl)cc1N1CCN(C(=O)CN2C(=O)c3cccc4cccc2c34)CC1", "inhibition (%)": 3.65}

###

Test: reversal of MRP1-mediated doxorubicin resistance, pilot screen, H69AR cells, doxorubicin co-treatment (AID 601)
Settings: H69AR cells + 2 uM doxorubicin, CellTiter-Glo, 72 h; at 10 µM; hits give high values
differential viability (reversal) overview
property-measured: differential viability (reversal) (%)

{"compound": "COC(=O)c1ccccc1NC(=O)C1CCN(S(=O)(=O)c2cc(C)ccc2OC)CC1", "recorded-value": -13.2}
{"compound": "Fc1cccc(Nc2cc(-n3cccn3)ncn2)c1", "recorded-value": -4.63}
{"compound": "Cc1cccc(NC(=O)C2CCCN2C(=O)OCC(C)C)c1C (configuration not stated)", "recorded-value": 8.52}
{"compound": "Cc1ccc2nc(SC(C)C(=O)N3CCCC3)[nH]c2c1 (configuration not stated)", "recorded-value": 6.04}
{"compound": "Cc1ccc(-n2nnnc2SCC(=O)N2CCc3ccccc3C2)cc1", "recorded-value": -8.77}
{"compound": "CN1CCN(c2ncnc3c2cnn3-c2ccc(Cl)cc2)CC1", "recorded-value": 1.02}
{"compound": "c1ccc(OCc2nc3ccccc3[nH]2)cc1", "recorded-value": 1.59}
{"compound": "O=C(CNC(=O)c1cc2ccccc2o1)NCc1cccs1", "recorded-value": -4.37}
{"compound": "Cn1c(-c2ccc(F)cc2)cnc1NCc1ccccc1", "recorded-value": -15.4}
{"compound": "O=C(O)CCCc1ccccc1", "recorded-value": 1.58}
{"compound": "CCOc1cc(C2NC(=O)N(C)C(C)=C2C(=O)OC)cc(Br)c1O (configuration not stated)", "recorded-value": 21.3}
{"compound": "O=C(NCC12CC3CC(C1)CC(CNC(=O)N1CCCC1)(C3)C2)N1CCCC1", "recorded-value": -4.64}
